Reported IC50 values for the following compounds.
Biological target: panel of kinases (Homo sapiens)
Sequence (P51813 1-675): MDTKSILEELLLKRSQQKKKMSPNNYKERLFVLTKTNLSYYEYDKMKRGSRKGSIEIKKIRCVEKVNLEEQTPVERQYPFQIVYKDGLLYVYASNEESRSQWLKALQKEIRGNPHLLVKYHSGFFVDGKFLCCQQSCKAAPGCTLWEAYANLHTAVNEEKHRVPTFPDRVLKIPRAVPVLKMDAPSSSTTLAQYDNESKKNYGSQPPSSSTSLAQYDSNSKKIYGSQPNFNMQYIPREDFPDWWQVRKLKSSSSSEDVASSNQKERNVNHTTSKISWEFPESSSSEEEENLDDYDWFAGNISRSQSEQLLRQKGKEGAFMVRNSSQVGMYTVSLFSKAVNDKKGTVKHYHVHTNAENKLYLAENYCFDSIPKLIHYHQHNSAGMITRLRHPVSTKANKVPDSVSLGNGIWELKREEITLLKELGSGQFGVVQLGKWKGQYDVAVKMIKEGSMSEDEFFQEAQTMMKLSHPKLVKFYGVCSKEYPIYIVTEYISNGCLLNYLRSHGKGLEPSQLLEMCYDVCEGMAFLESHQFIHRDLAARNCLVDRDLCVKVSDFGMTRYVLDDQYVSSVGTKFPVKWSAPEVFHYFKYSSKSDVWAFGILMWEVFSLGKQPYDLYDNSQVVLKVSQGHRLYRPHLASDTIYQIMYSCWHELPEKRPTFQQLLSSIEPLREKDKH
Give just the number in µM; leave the unit off.

Tested system panel of kinases (Homo sapiens); IC50 recorded for C[C@@H](NC(=O)c1cc(C(C)(C)O)on1)c1ccc(-c2ccnc3[nH]nc(N4CCS(=O)(=O)CC4)c23)cc1 [Example 406] was 5.32

Tested system panel of kinases (Homo sapiens); IC50 recorded for CC1(C(=O)N2CC[C@@H](Nc3n[nH]c4nccc(-c5ccc(C6(NC(=O)c7noc(C(C)(C)C)n7)CC6)cc5)c34)C2)COC1 [Compound 30] was 6.75

Tested system panel of kinases (Homo sapiens); IC50 recorded for C=CC(=O)N1CC[C@@H](Nc2n[nH]c3nccc(-c4ccc(CNC(=O)c5noc(CC)n5)c(F)c4)c23)C1 [Example 84] was 0.087

Tested system panel of kinases (Homo sapiens); IC50 recorded for C[C@@H](NC(=O)c1nc(C(C)(C)C)no1)c1ccc(-c2ccnc3[nH]nc(N4CCS(=O)(=O)CC4)c23)cc1 [Example 220] was 5.7

Tested system panel of kinases (Homo sapiens); IC50 recorded for OCc1ccc(-c2ccnc3[nH]nc(N[C@H]4CC[C@H](O)CC4)c23)cc1F [Compound 11] was 2.58

Tested system panel of kinases (Homo sapiens); IC50 recorded for C[C@@H](NC(=O)c1cc(C(C)(C)O)on1)c1ccc(-c2ccnc3[nH]nc(N[C@@H]4CC[C@H](C)N(C(=O)N(C)C)C4)c23)cc1F [Example 192] was 3.13
